experimental_parameters: in acetone, 298.15 K
endpoint: solubility (mole fraction)

{"chemical_string": "CSCC[C@H](NC(=O)OCC1c2ccccc2-c2ccccc21)C(=O)O", "measured_result": 0.0614}

----------
experimental_parameters: in n-butanol, 283.15 K

{"chemical_string": "CSCC[C@H](NC(=O)OCC1c2ccccc2-c2ccccc21)C(=O)O", "solubility (mole fraction)": 0.0142}

----------
experimental_parameters: in n-propanol, 323.15 K
endpoint: solubility (mole fraction)

{"chemical_string": "CSCC[C@H](NC(=O)OCC1c2ccccc2-c2ccccc21)C(=O)O", "measured_result": 0.0542}

----------
experimental_parameters: in isopentanol, 283.15 K
endpoint: solubility (mole fraction)

{"chemical_string": "CSCC[C@H](NC(=O)OCC1c2ccccc2-c2ccccc21)C(=O)O", "measured_result": 0.00409}
